study.system: T1, cynomolgus tissue factor (cynomolgus TF, Sino Bio #90885-C08H) (cynomolgus monkey, UniProt P13726 33-251 (human entry))
T1 construct: bought recombinant antigen; also called cyno TF
T1 chain: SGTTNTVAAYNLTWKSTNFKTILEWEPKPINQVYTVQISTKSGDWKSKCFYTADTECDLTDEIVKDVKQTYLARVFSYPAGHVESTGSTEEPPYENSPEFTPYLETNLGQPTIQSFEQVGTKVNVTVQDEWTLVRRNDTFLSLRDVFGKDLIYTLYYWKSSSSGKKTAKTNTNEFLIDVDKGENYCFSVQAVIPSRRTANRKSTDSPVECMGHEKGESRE
assay.notes: Biacore SPR kinetics, antibody captured on anti-Fc, 1:1 Langmuir fit

binder	koff
mAb 47: aTF_2842-B01_HC3_Y180/F404TAG; aTF_2842-B01_LC1 (antibody, IgG1, V domains shown, non-natural amino acid (pAMF) at TAG sites Y180 and F404 (EU), * in the sequence, unconjugated full-length IgG1/kappa; also called 2842-B01 HC3/LC1) VH: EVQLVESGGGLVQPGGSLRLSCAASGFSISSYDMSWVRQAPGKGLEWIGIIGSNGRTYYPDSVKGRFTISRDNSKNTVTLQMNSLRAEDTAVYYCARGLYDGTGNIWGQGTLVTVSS VL: DLQMTQSPSSLSASVGDRVTITCRASQSVYGNNWLSWYQQKPGKAPKLLIYGASKLASGVPSRFSGSGSGTQFTLTISSLQPEDFATYYCQGTYYSGDWYFAFGQGTKVEIKR	0.00166 s⁻¹
mAb 49: aTF_2842-G04_HC2_Y180/F404TAG; aTF_2842-G04_LC2 (antibody, IgG1, V domains shown, non-natural amino acid (pAMF) at TAG sites Y180 and F404 (EU), * in the sequence, unconjugated full-length IgG1/kappa; also called 2842-G04 HC2/LC2) VH: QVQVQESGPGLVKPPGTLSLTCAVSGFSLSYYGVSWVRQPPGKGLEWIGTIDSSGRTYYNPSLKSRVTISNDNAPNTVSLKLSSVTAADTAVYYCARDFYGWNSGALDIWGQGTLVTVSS VL: DLQLTQSPSTLSASVGDRVTITCRASQSVYSNKYLSWYQQKPGKAPKLLIYKASTLASGVPSRFSGSGSGTEFTLTISSLQPDDFATYYCAAAYSDDSDTAFGQGTKVEIKR	0.00241 s⁻¹
mAb 37: aTF_2842-B01_Hc3_Y180/F404TAG pAzMeF; aTF_2842-B01_Lc2 (antibody, IgG1, V domains shown, pAzMeF at Y180 and F404 (EU), * in the sequence, unconjugated full-length IgG1/kappa, cell-free expressed; also called 2842-B01 HC3/LC2; 2842-B01-HC3/LC2 Y180/F404) VH: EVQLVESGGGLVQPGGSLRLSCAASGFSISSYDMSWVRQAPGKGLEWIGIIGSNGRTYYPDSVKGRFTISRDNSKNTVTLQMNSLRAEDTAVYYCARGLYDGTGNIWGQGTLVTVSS VL: ELVMTQSPPTLSLSPGERVTLSCRASQSVYGNNWLSWYQQKPGQAPRLLIYGASKLATSIPARFSGSGSGTQFTLTISSLQPEDFAVYYCQGTYYSGDWYFAFGQGTKVEIKR	0.00113 s⁻¹
mAb 48: aTF_2842-B01_HC1_Y180/F404TAG; aTF_2842-B01_LC3 (antibody, IgG1, V domains shown, non-natural amino acid (pAMF) at TAG sites Y180 and F404 (EU), * in the sequence, unconjugated full-length IgG1/kappa; also called 2842-B01 HC1/LC3) VH: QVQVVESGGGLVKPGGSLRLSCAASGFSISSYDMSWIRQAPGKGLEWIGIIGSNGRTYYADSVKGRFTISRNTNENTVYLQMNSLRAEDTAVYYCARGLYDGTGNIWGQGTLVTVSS VL: DIQMTQSPSSLSASVGDRVTITCQASQSVYGNNWLSWYQQKPGKAPKLLIYGASKLASGVPSRFSGSGSGTDFTLTISSLQPEDFATYYCQGTYYSGDWYFAFGGGTKVEIKR	0.00735 s⁻¹
